- target_system: Full-length glucokinase (beta cell isoform) (Homo sapiens, UniProt P35557)
- Construct: Full-length glucokinase (beta cell isoform) was His-tagged at N-terminus; His tag (N); made in house
- Sequence (P35557 whole entry, species assumed, canonical isoform): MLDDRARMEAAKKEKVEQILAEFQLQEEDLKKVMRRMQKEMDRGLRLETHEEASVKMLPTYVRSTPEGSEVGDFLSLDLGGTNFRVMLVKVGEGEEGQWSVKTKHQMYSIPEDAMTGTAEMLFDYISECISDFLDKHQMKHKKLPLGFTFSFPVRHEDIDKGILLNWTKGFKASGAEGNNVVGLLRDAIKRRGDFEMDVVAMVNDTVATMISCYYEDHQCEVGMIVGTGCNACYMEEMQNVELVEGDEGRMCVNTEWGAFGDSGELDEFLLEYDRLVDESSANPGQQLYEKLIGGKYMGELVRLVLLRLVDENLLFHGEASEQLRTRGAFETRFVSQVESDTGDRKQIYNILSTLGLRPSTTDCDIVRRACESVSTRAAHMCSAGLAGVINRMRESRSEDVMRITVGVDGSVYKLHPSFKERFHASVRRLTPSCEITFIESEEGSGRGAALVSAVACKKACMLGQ
- experiment: Glucokinase biochemical assay (PK/LDH-coupled, NADH depletion at 340 nm): % activation, EC50, % max activation
- measurement_context: 5 mM glucose; fitted maximum activation; read-out: % Max Activation
value_type: Emax (%)

compound="Cn1ccc(NC(=O)c2cc(Oc3ccc(C(=O)N4CCC4)c(F)c3)c3c(c2)OC(CO)C3)n1 (stereo not shown)" value_type=Emax unit_tag=% endpoint_value=108
compound=Cn1ccc(NC(=O)c2cc(Oc3ccc(C(=O)N4CCOCC4)c(F)c3)c3c(c2)OC(C)(C)C3)n1 value_type=Emax unit_tag=% endpoint_value=130
compound="Cc1ccc(NC(=O)c2cc(Oc3ccc(C(=O)N4CCC4)c(F)c3)c3c(c2)OC(CO)C3)nc1 (stereo not shown)" value_type=Emax unit_tag=% endpoint_value=91
compound=Cn1ccc(NC(=O)c2cc(Oc3ccc(-c4ncon4)nc3)c3c(c2)OC(C)(C)C3)n1 value_type=Emax unit_tag=% endpoint_value=237
compound=CCc1cc2c(Oc3ccc(S(C)(=O)=O)cc3)cc(C(=O)Nc3ccc(C)cn3)cc2o1 value_type=Emax unit_tag=% endpoint_value=121
compound=C[C@@H](CO)COc1cc(C(=O)Nc2ccn(C)n2)cc2c1CC(C)(C)O2 value_type=Emax unit_tag=% endpoint_value=137
compound="Cc1ccc(NC(=O)c2cc(Oc3ccc(C(=O)N(C)C)c(F)c3)c3c(c2)OC(C)(CO)C3)nc1 (stereo not shown)" value_type=Emax unit_tag=% endpoint_value=42
compound="CC(Oc1cc(C(=O)Nc2ccn(C)n2)cc2c1CC(C)(C)O2)c1ccncn1 (stereo not shown)" value_type=Emax unit_tag=% endpoint_value=159
compound=Cn1ncc(NC(=O)c2cc(Oc3ccc(-c4ncon4)c(F)c3)c3c(c2)OC(C)(C)C3)n1 value_type=Emax unit_tag=% endpoint_value=234
compound=Cn1ccc(NC(=O)c2cc(Oc3ccc(C(=O)NCC(F)F)c(F)c3)c3c(c2)OC(C)(C)C3)n1 value_type=Emax unit_tag=% endpoint_value=206
compound=COCc1cc2c(Oc3ccc(S(C)(=O)=O)cc3)cc(C(=O)Nc3cnn(C)n3)cc2o1 value_type=Emax unit_tag=% endpoint_value=155
compound=CN(C)C(=O)c1ccc(Oc2cc(C(=O)Nc3ccc(CO)cn3)cc3c2CC(C)(C)O3)cc1 value_type=Emax unit_tag=% endpoint_value=43
compound=CN(C)C(=O)c1ccc(Oc2cc(C(=O)Nc3cc[nH]n3)cc3c2CC(C)(C)O3)cc1 value_type=Emax unit_tag=% endpoint_value=98
compound="COCC1Cc2c(Oc3ccc(C(=O)N(C)C)c(F)c3)cc(C(=O)Nc3ccn(C)n3)cc2O1 (stereo not shown)" value_type=Emax unit_tag=% endpoint_value=94.5
compound=CCc1cc2c(Oc3ccc(S(C)(=O)=O)cc3)cc(C(=O)Nc3ccn(C)n3)cc2o1 value_type=Emax unit_tag=% endpoint_value=210
compound=COC(=O)c1ccc(NC(=O)c2cc(Oc3ccc(S(C)(=O)=O)cc3)c3cc(C)oc3c2)nc1 value_type=Emax unit_tag=% endpoint_value=79
